- TARGET_DESC: GLP-1R (Homo sapiens)
- Sequence (P43220 24-463): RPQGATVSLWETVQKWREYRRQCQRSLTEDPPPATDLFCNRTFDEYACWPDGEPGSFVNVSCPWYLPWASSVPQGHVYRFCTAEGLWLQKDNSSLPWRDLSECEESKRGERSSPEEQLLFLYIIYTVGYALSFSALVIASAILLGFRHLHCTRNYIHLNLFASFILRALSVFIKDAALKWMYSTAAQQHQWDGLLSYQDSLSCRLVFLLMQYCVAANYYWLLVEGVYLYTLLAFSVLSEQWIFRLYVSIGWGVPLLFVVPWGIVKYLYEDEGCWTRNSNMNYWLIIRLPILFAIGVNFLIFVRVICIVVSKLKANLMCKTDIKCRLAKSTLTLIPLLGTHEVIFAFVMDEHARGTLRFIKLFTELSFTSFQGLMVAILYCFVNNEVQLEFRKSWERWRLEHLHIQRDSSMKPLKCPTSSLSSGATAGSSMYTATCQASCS
- EXPERIMENTAL_PROTOCOL: GLP-1R Activation - cAMP Assay
- Format: cell-based
- TEST_CONDITIONS: cAMP increase in CHO cells stably expressing GLP-1R; each compound run on one of the two cAMP assays (Assay 1 or Assay 2, not specified)
pEC50: −log10 of the molar value.
Everything with pEC50 lower than 9 is no; everything else, including exactly 9, is yes.

1) Cc1cc(Cc2nc3ccc(C(=O)O)cc3n2[C@@H]2COCC2(C)C)c(F)cc1-c1ccc(F)c(OCc2ccc(C#N)cc2F)n1 | yes
2) Cc1cc(Cc2nc3c(F)cc(C(=O)O)cc3n2[C@@H]2COCC2(C)C)c(F)cc1-c1ccnc(OCc2ccc(Cl)cc2)n1 | yes
3) CC1(C)COC[C@H]1n1c(Cc2cc(F)c(-c3ccnc(OCc4ccc(-n5ccnn5)cc4)n3)cc2F)nc2ccc(C(=O)O)cc21 | yes
4) CC1(C)COCC1n1c(Cc2cc(F)c(-c3cccc(OCc4cc(F)c(Cl)cc4F)n3)cc2F)nc2c(F)cc(C(=O)O)cc21 (stereo not shown) | yes

Consider now this further molecule.
Problem: Dear colleague, could you confirm whether "C[C@H]1COC[C@H]1n1c(Cc2cc(F)c(-c3ccc(F)c(OCc4ccc(C#N)cc4)n3)cc2F)nc2ccc(C(=O)O)cc21" has pEC50 at or above 9?
Result: yes
